Hello, the source for this data is the supplement of paper PMC10567573, in case you need it.

B1: MYBL2 (parent)
chain: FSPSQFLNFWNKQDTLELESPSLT

Variants of: B1
Test: protein stability index of a GFP-peptide fusion (GPS, HEK-293T) (PSI 1-6); higher = more stable;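 note: lentivirally expressed fusions sorted by FACS into six bins by GFP to DsRed ratio, PSI derived from sequencing read proportions per bin multiplied by bin number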
Conditions: c terminus: a fixed tail appended
reported_property: protein stability index
The response must contain the number and no unit.

State the recorded protein stability index for this entry: T24K 3.62

P3K , same question. 2.02

Another variant: S2F 2.14

Cool, now N11Y 3.26

// next record N8Y 2.06

Now consider L16E and answer again. 1.26

Another: N11C 4.67

Next up: P3N 2.38

Entry to check: D14R 4.08

Please answer likewise for S22F 3.27

Same lookup for S20E , please. 1.23

Then this variant: E19C 3.63

Another variant: F9Y 1.74

# iterate: Q13P 2.06

Moving on to P3A 3.83

Also need E17H , thanks. 2.37

What about this variant? F1C 2.62

Okay, and Q5W ? 2.86

For N8L then? 3.22

Also N8Q , if possible. 2.17

One more variant: T15E 2.4

Thanks! And N8W ? 2.9

Repeat for the following variant: D14C 4.04

Continue with S2T 3

Ok, now W10I 2.28

What about this variant? E19H 2.88

E19F , same question. 2.58

Next: L23V 2.91

# iterate: D14V 3.22

Next variant: K12S 2.02

Check S4C too. 2.91

Follow-up item: S4Q 4.58

Then what about the variant E19V ? 2.8

Request: F1K 3.75

Item: Q5M 2.95

N11T ? 2.79

Now give it for L18T too. 3.04

Another: L7W 2.38

Now try K12H . 2.4

Same question, S20K this time 2.35

Note, next up: S4F 3.04

Also need P21Q , thanks. 2.56

Now this one: S20R 2.26

Likewise for T15F ? 2.34

One more variant: L18W 5.25

// same read-out, input: F9P 2.48

Also K12V , if possible. 4.37

Also N8V , if possible. 3.44

Can you handle K12M next? 3.42

Item: W10T 2.98

And what about the variant E19T ? 2.39

Also, F6K please. 2.86

Proceed to K12Q 1.93

What do you get for E17W ? 2.71

N11D , same question. 3.14

// repeat for S22C and report 4.69

Now this one: P21N 3.41

Again, but for T15C 2.54

Also, T15A please. 3.05

Entry to check: F6L 4.19

Now the variant E17A 1.07

Further, for Q13T ? 2.4

Subsequent entry: P21F 3.56

Another variant to check: S4I 4.06

Note, next up: S4P 2.14

Please give the result for F9L too. 2.98

Same question for S2R please. 2.26

Query F1G next 2.83

Try N11L next. 3.89

Next entry: L23R 2.97

Repeat for the following variant: E19L 4.26

Cool, now F1N 3.3

Now consider D14Y and answer again. 3.5

Request: T15L 3.22

Also L7K ? 2.97

Consider next the variant L18M in the same way. 2.88

Would you mind doing Q5K as well? 2.44

Moving on to the next variant: L7P 2.25

Another variant to check: E19W 2.64

Now the variant E17L 3.9

Follow-up entry: S20L 1.89

How about this variant: Q13V 2.94

Try this variant too: W10G 2.93

What about T24E ? 2.34

Field entry: L7T 3.42

Also need S20P , thanks. 1.65

// next record W10K 2.8

What do we get for E17F ? 1.84

Proceed to L7A 3.29

Query W10D next 3.87

Field entry: S4N 3.63
